System: P388 leukemia ip, CD2F1 mice, survival T/C
Experiment: NCI In Vivo Anticancer Drug Screen. Data for tumor model P388 Leukemia (intraperitoneal) in CD2F1 (CDF1) mice
Details: endpoint: median survival time; dose: 100.0 mg/kg/injection; schedule: Q01DX009 (ip); vehicle: Klucel (hydroxypropylcellulose) (HPC); higher = longer survival
Toxic doses and inconclusive results are not listed.
Examples of compounds with documented T/C follow.
Test readout: T/C

Compound | Study target | Measurement
CC(C)(Cc1ccccc1)C(=C=C=C=C(c1ccccc1)C(C)(C)Cc1ccccc1)c1ccccc1 | P388 leukemia ip, CD2F1 mice, survival T/C | 92 % of control
O=C(Nc1ccccc1[N+](=O)[O-])C1C(=O)C(=O)N(c2ccccc2[N+](=O)[O-])C1=O (centres undefined) | P388 leukemia ip, CD2F1 mice, survival T/C | 108 % of control
O=C(Nc1ccc(Cl)cc1)OC1CCS(=O)(=O)C1 (centres undefined) | P388 leukemia ip, CD2F1 mice, survival T/C | 100 % of control
Clc1ccc(N=Cc2cccs2)cc1Cl | P388 leukemia ip, CD2F1 mice, survival T/C | 107 % of control
COc1cccc(OC)c1OCCN1C(=O)c2ccccc2C1=O | P388 leukemia ip, CD2F1 mice, survival T/C | 100 % of control
CC1=C(C)Cn2c(=O)c3cc4ccccc4cc3c(=O)n2C1 | P388 leukemia ip, CD2F1 mice, survival T/C | 90 % of control
CCCSc1nc2ccc(NC(=O)/C=C/C(=O)O)cc2s1 | P388 leukemia ip, CD2F1 mice, survival T/C | 96 % of control
Clc1cccc(Cl)c1CSc1nc2ccccc2n2cccc12 | P388 leukemia ip, CD2F1 mice, survival T/C | 105 % of control
COc1cc(CC2C(=O)OCC2C2(c3ccc4c(c3)OCO4)SCCCS2)cc(OC)c1OC (centres undefined) | P388 leukemia ip, CD2F1 mice, survival T/C | 91 % of control
Cc1ccc(N2OC3(CCCCC3)n3c(=O)c4ccccc4c(=O)n3C2c2ccccc2)cc1 (centres undefined) | P388 leukemia ip, CD2F1 mice, survival T/C | 106 % of control
CC[C@]12CCCN3CCc4c(n(c5ccccc45)C(=O)C1)[C@@H]32 | P388 leukemia ip, CD2F1 mice, survival T/C | 107 % of control
CS(=O)(=O)/C=C/c1cccnc1 | P388 leukemia ip, CD2F1 mice, survival T/C | 99 % of control
CC1(C)OCC(C2OC(C)(C)OC2C2COC(C)(C)O2)O1 (centres undefined) | P388 leukemia ip, CD2F1 mice, survival T/C | 100 % of control
CC(C)(C)c1ccc(OP(=S)(NN)Oc2ccc(C(C)(C)C)cc2)cc1 | P388 leukemia ip, CD2F1 mice, survival T/C | 102 % of control
O=C(CC(NO)c1ccccc1)NO (centres undefined) | P388 leukemia ip, CD2F1 mice, survival T/C | 105 % of control
CCn1c(=O)[nH]c(=O)c2[nH]c(Cl)nc21 | P388 leukemia ip, CD2F1 mice, survival T/C | 93 % of control
CCOC(=O)c1cnc2ncccn12 | P388 leukemia ip, CD2F1 mice, survival T/C | 101 % of control
CC1(C)NNC(=S)NC1=O | P388 leukemia ip, CD2F1 mice, survival T/C | 97 % of control
CCCCN1C(=O)C(=O)N(Cc2ccco2)C1=O | P388 leukemia ip, CD2F1 mice, survival T/C | 104 % of control
COc1cc(N2C(=O)CSC2=S)cc(OC)c1OC | P388 leukemia ip, CD2F1 mice, survival T/C | 89 % of control
CC(=O)CC1(O)C(=O)Nc2ccc(Br)cc21 (centres undefined) | P388 leukemia ip, CD2F1 mice, survival T/C | 108 % of control
N#CC1C(=O)NC(=O)C(C#N)C1c1ccncc1 (centres undefined) | P388 leukemia ip, CD2F1 mice, survival T/C | 104 % of control
O=C(Nc1nccs1)Nc1cc(C(F)(F)F)ccc1Cl | P388 leukemia ip, CD2F1 mice, survival T/C | 97 % of control
O=C(Nc1ccc(Cc2ccc(NC(=O)Nc3cccnc3)cc2)cc1)Nc1cccnc1 | P388 leukemia ip, CD2F1 mice, survival T/C | 94 % of control
COc1ccccc1N=c1scc(C)n1C | P388 leukemia ip, CD2F1 mice, survival T/C | 109 % of control
CC(=O)OC1(C)SCCN1C(N)=O (centres undefined) | P388 leukemia ip, CD2F1 mice, survival T/C | 104 % of control
Cc1ccc(/C=N/S(=O)(=O)Cc2ccccc2)cc1 | P388 leukemia ip, CD2F1 mice, survival T/C | 100 % of control
N#CC(Cc1ccc(Cl)cc1)c1ccccc1 (centres undefined) | P388 leukemia ip, CD2F1 mice, survival T/C | 95 % of control
CC(C)SC=O | P388 leukemia ip, CD2F1 mice, survival T/C | 107 % of control
COc1ccc(-c2cc(-c3ccccc3)nc(-c3cccc([N+](=O)[O-])c3)c2)cc1 | P388 leukemia ip, CD2F1 mice, survival T/C | 124 % of control
O=C(Nc1ccc2ccccc2c1)C1C(=O)C(=O)N(c2ccc3ccccc3c2)C1=O (centres undefined) | P388 leukemia ip, CD2F1 mice, survival T/C | 106 % of control
Ic1ccc(C2CC(c3ccccc3)=NN2c2ccccc2)cc1 (centres undefined) | P388 leukemia ip, CD2F1 mice, survival T/C | 87 % of control
O=C(NCC(CC(NC(=O)c1ccccc1)C(=O)O)NC(=O)c1ccccc1)c1ccccc1 (centres undefined) | P388 leukemia ip, CD2F1 mice, survival T/C | 89 % of control
Cc1ccc(S(=O)(=O)C2(Sc3ccccc3)SC2C(=O)c2ccccc2)cc1 (centres undefined) | P388 leukemia ip, CD2F1 mice, survival T/C | 105 % of control

====

Test system: P388 leukemia ip, CD2F1 mice, survival T/C
Assay: NCI In Vivo Anticancer Drug Screen. Data for tumor model P388 Leukemia (intraperitoneal) in CD2F1 (CDF1) mice
Conditions: endpoint: median survival time; dose: 25.0 mg/kg/injection; schedule: Q01DX009 (ip); vehicle: saline; higher = longer survival
Inconclusive results and toxic doses are left out.
Examples of molecules with documented T/C follow.

Molecule | T/C
CCN(CC)CCOC(=O)C(c1ccccc1)C(C)(O)CC (stereo not drawn) | 105 % of control
CNC(=S)N/N=C/c1ccccn1 | 117 % of control
Nc1ccc(C(=O)CCCN2CCCCC2)cc1 | 95 % of control

====

System: P388 leukemia ip, CD2F1 mice, survival T/C
Assay: NCI In Vivo Anticancer Drug Screen. Data for tumor model P388 Leukemia (intraperitoneal) in CD2F1 (CDF1) mice
Conditions: endpoint: median survival time; dose: 200.0 mg/kg/injection; schedule: Q01DX001 (ip); vehicle: saline with Tween-80; higher = longer survival
Inconclusive results and toxic doses are left out.
Examples of compounds with documented T/C follow.
Test readout: T/C

Compound | Test readout | Measurement
CSC1(C)C(=O)Nc2cccc([N+](=O)[O-])c21 (configuration not stated) | T/C | 93 % of control
CC1=C(Cl)C(=N\S(=O)(=O)c2ccccc2)/c2ccccc2/C1=N/S(=O)(=O)c1ccccc1 | T/C | 95 % of control
NC(=O)N/N=C1\CC2C=CC1/C=C\C=C\2 (configuration not stated) | T/C | 106 % of control
O=c1[nH]c(=O)c2cc(Cl)cc(Cl)c2[nH]1 | T/C | 90 % of control
C=C1C(C#N)=C(SC)SC(=S)N1CC | T/C | 93 % of control
CSc1nc2n(Cc3cn(C)c(=O)n(C)c3=O)cc(C)cc-2c(=O)n1 | T/C | 94 % of control
CCOC(=O)c1c(-c2ccccc2)oc2ccc(NS(=O)(=O)c3ccccc3)cc12 | T/C | 104 % of control

====

Test system: P388 leukemia ip, CD2F1 mice, survival T/C
Assay: NCI In Vivo Anticancer Drug Screen. Data for tumor model P388 Leukemia (intraperitoneal) in CD2F1 (CDF1) mice
Conditions: endpoint: median survival time; dose: 12.5 mg/kg/injection; schedule: Q01DX005 (ip); vehicle: saline with Tween-80
Toxic doses and inconclusive results are not listed. How the source made its calls: active means survival T/C of 150% or more; inactive means T/C below 125% in these data.
Possible outcomes: yes for active, no for inactive

Compound | Discrete label
Cc1ccc(/C=N/NC(=O)C(=O)Nc2ccc(Cl)c([N+](=O)[O-])c2)cc1 | no
CCOC(=O)C(Cc1ccc(N(CCCl)CCCl)cc1)NC(=O)C(Cc1ccc(N)cc1)NC(C)=O (stereo not drawn) | yes
COC(=O)c1cc(=O)nc(NN=C2c3ccccc3-c3ccccc32)s1 | no

====

System: P388 leukemia ip, CD2F1 mice, survival T/C
Test: NCI In Vivo Anticancer Drug Screen. Data for tumor model P388 Leukemia (intraperitoneal) in CD2F1 (CDF1) mice
Settings: endpoint: median survival time; dose: 400.0 mg/kg/injection; schedule: Q01DX001 (ip); vehicle: Klucel (hydroxypropylcellulose) (HPC); higher = longer survival
Toxic doses and inconclusive results are not listed.
Test readout: T/C

Smiles structure | Measurement
Brc1cc2cccnc2c2ccccc12 | 97 % of control
CC1(C)CC(=O)C(CSCS)=C(O)C1 | 92 % of control
CCSc1nsc(NC(C)=O)n1 | 102 % of control
NC(=S)N/N=C/c1c(Br)nc2sccn12 | 89 % of control
CC(C)n1c(Cl)c(C=O)c2ccccc21 | 98 % of control
